test system: 616215-338-R-J1-PDC complex spheroid growth, % test/control; test: Anticancer human tumor 616215-338-R-J1-PDC patient-derived colon adenocarcinoma cell line growth inhibition [Asc]; conditions: second compound 1 µM; first compound 0.0316 µM; active compounds read low
readout kind: viability, T/C (%)
Please respond with the number in % and leave the unit unwritten.

Use the examples below as a reference point.
compound: C#Cc1c(F)ccc2cc(O)cc(-c3ncc4c(N5CC6CCC(C5)N6)nc(OCC56CCCN5CC(F)C6)nc4c3F)c12 (stereo not drawn) + CNC(C)C(=O)NC1CN(S(=O)(=O)c2cccc(S(=O)(=O)N3CCC4CCC(C(=O)NC(c5ccccc5)c5ccccc5)N4C(=O)C(NC(=O)C(C)NC)C3)c2)CCC2CCC(C(=O)NC(c3ccccc3)c3ccccc3)N2C1=O
viability, T/C, %: 106
//
compound: NC1CCC(NC2CC2c2ccccc2)CC1 (stereo not drawn) + Cc1c(S(C)(=O)=O)c(-c2cc(F)cc(N3CCN(c4ccc(NS(=O)(=O)c5ccc(NC(CCN6CCC(C(=O)OCCCP(=O)(O)O)CC6)CSc6ccccc6)c(S(=O)(=O)C(F)(F)F)c5)cc4)CC3)c2)c(-c2ccc(Cl)cc2)n1C(C)C
viability, T/C, %: 61.8

# get_value(readout= viability, T/C, system= 616215-338-R-J1-PDC complex spheroid growth, % test/control) for CCN1CCN(Cc2ccc(Nc3ncc(F)c(-c4cc(F)c5nc(C)n(C(C)C)c5c4)n3)nc2)CC1 + CNC(C)C(=O)NC1CN(S(=O)(=O)c2cccc(S(=O)(=O)N3CCC4CCC(C(=O)NC(c5ccccc5)c5ccccc5)N4C(=O)C(NC(=O)C(C)NC)C3)c2)CCC2CCC(C(=O)NC(c3ccccc3)c3ccccc3)N2C1=O
101

---

system: 616215-338-R-J1-PDC complex spheroid growth, % test/control; assay: Anticancer human tumor 616215-338-R-J1-PDC cell line growth inhibition [Asc]; details: second compound 0.1 µM; first compound 0.00316 µM; active compounds read low;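 note: spheroids exposed to agents for seven days before readout; 100% = DMSO vehicle control viability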
readout kind: viability, T/C (%)
Your answer is read as %, so omit the unit and give the number.

compound: Cn1ncnc1[C@H]1c2n[nH]c(=O)c3cc(F)cc(c23)N[C@@H]1c1ccc(F)cc1 + CNC(C)C(=O)NC1CN(S(=O)(=O)c2cccc(S(=O)(=O)N3CCC4CCC(C(=O)NC(c5ccccc5)c5ccccc5)N4C(=O)C(NC(=O)C(C)NC)C3)c2)CCC2CCC(C(=O)NC(c3ccccc3)c3ccccc3)N2C1=O
readout kind: viability, T/C
unit info: %
experimental result: 103
//
compound: CNC(C)C(=O)NC1CN(S(=O)(=O)c2cccc(S(=O)(=O)N3CCC4CCC(C(=O)NC(c5ccccc5)c5ccccc5)N4C(=O)C(NC(=O)C(C)NC)C3)c2)CCC2CCC(C(=O)NC(c3ccccc3)c3ccccc3)N2C1=O (stereo not given) + Cc1c(S(C)(=O)=O)c(-c2cc(F)cc(N3CCN(c4ccc(NS(=O)(=O)c5ccc(NC(CCN6CCC(C(=O)OCCCP(=O)(O)O)CC6)CSc6ccccc6)c(S(=O)(=O)C(F)(F)F)c5)cc4)CC3)c2)c(-c2ccc(Cl)cc2)n1C(C)C
readout kind: viability, T/C
unit info: %
experimental result: 94
//
compound: O=C(c1ccc(F)c(F)c1Nc1ccc(I)cc1F)N1CC(O)([C@@H]2CCCCN2)C1 + CNC(C)C(=O)NC1CN(S(=O)(=O)c2cccc(S(=O)(=O)N3CCC4CCC(C(=O)NC(c5ccccc5)c5ccccc5)N4C(=O)C(NC(=O)C(C)NC)C3)c2)CCC2CCC(C(=O)NC(c3ccccc3)c3ccccc3)N2C1=O
readout kind: viability, T/C
unit info: %
experimental result: 99.6

Please provide the recorded viability, T/C for NC1CCC(NC2CC2c2ccccc2)CC1 (stereo not given) + Cc1c(S(C)(=O)=O)c(-c2cc(F)cc(N3CCN(c4ccc(NS(=O)(=O)c5ccc(NC(CCN6CCC(C(=O)OCCCP(=O)(O)O)CC6)CSc6ccccc6)c(S(=O)(=O)C(F)(F)F)c5)cc4)CC3)c2)c(-c2ccc(Cl)cc2)n1C(C)C , tested on 616215-338-R-J1-PDC complex spheroid growth, % test/control.
89

Also, COc1c(OCCCN2CCOCC2)ccc2c3n(c(=NC(=O)c4cnc(N)nc4)nc12)CCN3 + Cc1c(S(C)(=O)=O)c(-c2cc(F)cc(N3CCN(c4ccc(NS(=O)(=O)c5ccc(NC(CCN6CCC(C(=O)OCCCP(=O)(O)O)CC6)CSc6ccccc6)c(S(=O)(=O)C(F)(F)F)c5)cc4)CC3)c2)c(-c2ccc(Cl)cc2)n1C(C)C please.
93.1
